Test system: K-562
test description: cell viability (% survival relative to DMSO control, bortezomib = 0%); higher = less cytotoxic
protocol conditions: 1 nM; 72 h

# compound, tested target, cell viability
measured = [
    ("CC[C@@]1(O)C(=O)OCc2c1cc1n(c2=O)Cc2cc3c(CN(C)C)c(O)ccc3nc2-1", "K-562", "90.8%"),
    ("CC(C)c1nc(CN(C)C(=O)N[C@H](C(=O)N[C@@H](Cc2ccccc2)C[C@H](O)[C@H](Cc2ccccc2)NC(=O)OCc2cncs2)C(C)C)cs1", "K-562", "112%"),
    ("O=C(O)CCCCC(CCSCc1ccccc1)SCc1ccccc1 (stereo not given)", "K-562", "94%"),
    ("O=C(O)C(=O)CBr", "K-562", "91.3%"),
    ("CC(C)c1cc2c(c(O)c1O)[C@@]1(C(=O)O)CCCC(C)(C)[C@@H]1CC2", "K-562", "105%"),
]
